System: benzothiazepine bonding site of the L-type calcium channel
TEST PROTOCOL: Bonding investigations on the L calcium channel, benzothiazepine bonding site (diltiazem bonding)
Assay type: binding
CONDITION LABEL: percentage inhibition at 10 μM test substance; [3H]-cis-(+)-diltiazem 5 nM; rat cerebrocortex membranes
Assignment: determine reported Diltiazem bonding at 10 μM for the given compounds.
Your answer is read as %, so omit the unit and give the number.

// returns reported Diltiazem bonding at 10 μM for input Cc1ccccc1COC1CCCCC1C(c1ccccc1)N(C)C.Cl (centres unmarked)
82

// returns reported Diltiazem bonding at 10 μM for input COc1ccc(C(=O)OC2CCCCC2C(c2ccccc2)N(C)C)cc1.Cl (centres unmarked)
65

// returns reported Diltiazem bonding at 10 μM for input CN(C)C(c1ccccc1Cl)C1CCCCC1OCc1ccccc1Cl.Cl (centres unmarked)
73

// returns reported Diltiazem bonding at 10 μM for input CN(C)C(c1ccccc1)C1CCCCC1OCc1ccc(F)cc1.Cl (centres unmarked)
86

// returns reported Diltiazem bonding at 10 μM for input CN(C)C(c1ccccc1)C1CCCCC1OCc1cccc(F)c1.Cl (centres unmarked)
89
